Test: Single-dose i.p. pharmacokinetic study in mice, plasma, four-compartment model
Assay type: in vivo, ICR mice
Conditions: mouse, in vivo, ip; four-compartment model, murine plasma, 1-16 mg/kg i.p.; read-out: CLt (total clearance), final estimate (converted)
Numbered stars: 1 amine (or outer) side, 2 acyl side, 3 side chain; on linkers, the order of the positions; unused ones are H or OH. Bridge positions count the residues as written; N and C are the ends. Square brackets hold non-standard residues; d marks the D form. Peptide text beside a SMILES is read from it. * marks the point of attachment. Orn(4R-OH,5R-OCH2CH2NMe3+) = C[N+](C)(C)CCO[C@@H](N[*:3])[C@H](O)C[C@H](N[*:1])C(=O)[*:2]; pTerphenylCO(4''-OnC5H11) = CCCCCOc1ccc(-c2ccc(-c3ccc(C(=O)*)cc3)cc2)cc1; hTyr(3S-OH,4S-OH) = N[C@H](C(=O)O)[C@H](O)[C@@H](O)c1ccc(O)cc1; Pro(3S-OH,4S-Me) = C[C@H]1CN[C@H](C(=O)O)[C@H]1O; Hyp = O=C(O)[C@@H]1C[C@@H](O)CN1
endpoint_name: CL/F (mL/min/kg)
The reply should be a number in mL/min/kg, with the unit left off.

CL/F reported for this molecule CCCCCOc1ccc(-c2ccc(-c3ccc(C(=O)N[C@H]4C[C@@H](O)[C@@H](OCC[N+](C)(C)C)NC(=O)[C@@H]5[C@@H](O)[C@@H](C)CN5C(=O)[C@H]([C@@H](C)O)NC(=O)[C@H]([C@H](O)[C@@H](O)c5ccc(O)cc5)NC(=O)[C@@H]5C[C@@H](O)CN5C(=O)[C@H]([C@@H](C)O)NC4=O)cc3)cc2)cc1 [CD101] ({pTerphenylCO(4''-OnC5H11)}-[Orn(4R-OH,5R-OCH2CH2NMe3+)]T[Hyp][hTyr(3S-OH,4S-OH)]T[Pro(3S-OH,4S-Me)]; lactam 1-C) : 0.173
